Tested on: ACHN
Assay: NCI tumour cell line growth inhibition, 48 h
Calls of active or inactive are those of the source. No stated cut-off is given here; in the data, active = GI50 up to about 1.1 µM and inactive = higher.
Hello, when you answer, please use one of the following outcomes: class 1 for active, class 0 for inactive

[[record]]
compound = "COc1ccc2c3c1C(=O)CCC3CO2 (configuration not stated)"
class = "class 0"

[[record]]
compound = "O=C(NC(c1ccccc1)C(O)C(=O)OCc1ccc2c(c1)C(=O)c1ccccc1C2=O)c1ccccc1 (configuration not stated)"
class = "class 0"

[[record]]
compound = "O=C1Cc2c([nH]c3ccccc23)-c2ccccc2N1 [PAULLONE]"
class = "class 0"

[[record]]
compound = "COC1C=CC23c4cc5c(cc4C(O)OC2CN(C)C3C1)OCO5 (configuration not stated)"
class = "class 0"

[[record]]
compound = "Cc1ccc(S(=O)(=O)c2c3nc4ccccc4nc3n3c2[nH]c2ccccc23)cc1"
class = "class 0"

[[record]]
compound = "CCCc1cn2c(/C=N/NC(=N)N)c(-c3cc([N+](=O)[O-])c(Cl)cc3Cl)nc2s1"
class = "class 0"


Task: Recorded call for CN(C)/N=N/c1nc2c(c(=O)n(C)c(=O)n2C)n1CC1CO1 (configuration not stated) ?
Output: class 0

Task: Record: COc1cc(Nc2nc3cc(C)ccc3nc2-c2ccccc2)cc(OC)c1OC
Output: class 0

Task: Please give the result for CC(=O)N1N=C(c2c(O)ccc3ccccc23)CC1C(=O)c1ccco1 (configuration not stated) too.
Output: class 0

Task: What would you report for CC1=NN(C(=O)CC(=O)Nc2ccccc2)C(=O)C1/N=N/c1ccc(S(N)(=O)=O)cc1 (configuration not stated) ?
Output: class 0

Task: What do you get for O=C(Cc1ccccc1)NN1C(=O)C(Cl)C1c1cccc([N+](=O)[O-])c1 (configuration not stated) ?
Output: class 0
